// data source = patent US20140039044A1

System: caspase-12
run description: Caspase-12 activity assay (fluorogenic substrate, immunofluorescence)
Format: cell-based, human
condition info: MCF-7 cells, day 3 or 6, FIG. 12B, 13C,D

# compound, Caspase-12 activation, in words
measured = [
    ("COc1ccc(-c2cc(=O)c3c(OC)c(OC)c(OC)cc3o2)cc1O [Compound 5, 3′-hydroxy-5,6,7,4′-tetramethoxyflavone]", "activation"),
    ("COc1ccc(-c2oc3c(OC)c(OC)c(OC)c(O)c3c(=O)c2OC)cc1OC", "activation"),
]

====

System: AGS cells
run description: Cell cycle distribution by flow cytometry
Assay type: cell-based, human
condition info: 10 μM, 24 h, Table 11
Measured Cell Cycle Distribution G0/G1 by item
recorded metric: Cell Cycle Distribution G0/G1

# compound, recorded number
measured = [
    ("COc1c(OC)c(OC)c2c(=O)cc(-c3ccc(O)c(O)c3)oc2c1OC [H]", 61.72),
    ("COc1ccc(-c2cc(=O)c3c(O)c(OC)c(OC)c(OC)c3o2)cc1OC [J]", 57.07),
    ("COc1ccc(-c2cc(=O)c3c(OC)c(OC)c(OC)c(OC)c3o2)cc1OC [Compound A, 5,6,7,8,3′,4′-hexamethoxyflavone, reference compound]", 47.1),
    ("COc1ccc(-c2oc3c(OC)c(OC)c(OC)c(OC)c3c(=O)c2OC)cc1OC [D, 3,5,6,7,8,3,4-heptamethoxyflavone, reference compound]", 44.2),
    ("COc1ccc(-c2cc(=O)c3c(OC)c(OC)c(OC)c(OC)c3o2)cc1O [I]", 58.27),
    ("COc1ccc(-c2oc3c(OC)c(OC)c(OC)c(O)c3c(=O)c2OC)cc1OC [Compound C]", 29.6),
    ("COc1cc(-c2cc(=O)c3c(OC)c(OC)c(OC)c(OC)c3o2)ccc1O [Compound G]", 60.42),
]

====

Tested on: [Ca^2+]i in MCF-7 cells
run description: Intracellular calcium measurement (fluo-3)
Format: cell-based, human
Procedure: Concentration of intracellular free Ca^2+ ([Ca^2+]i) was measured with Ca^2+ indicators fura-2 and fluo-3, as described in detail previously, for example, in Sergeev (2004) J. Steroid Biochem. Mol. Biol. 89-90:419-425. […] Fluorescence (485 nm excitation, 530 nm emission) was measured in the FLx800 plate reader, as described above. […]
recorded metric: Increase in [Ca^2+]i (ECmin, apparent minimal effective concentration) (µM)

# compound, assayed target, display unit, bound operator, recorded number
measured = [
    ("COc1ccc(-c2cc(=O)c3c(OC)c(OC)c(OC)cc3o2)cc1OC [Compound 7, 5,6,7,3′,4′-pentamethoxyflavone, reference compound]", "[Ca^2+]i in MCF-7 cells", "µM", ">", 50),
    ("COc1ccc(-c2cc(=O)c3c(OC)c(OC)c(OC)cc3o2)cc1O [Compound 5, 3′-hydroxy-5,6,7,4′-tetramethoxyflavone]", "[Ca^2+]i in MCF-7 cells", "µM", "=", 3.125),
    ("COc1ccc(-c2oc3c(OC)c(OC)c(OC)c(O)c3c(=O)c2OC)cc1OC [Compound C]", "[Ca^2+]i in MCF-7 cells", "µM", "=", 1.56),
    ("COc1ccc(-c2oc3c(OC)c(OC)c(OC)c(OC)c3c(=O)c2OC)cc1OC [D, 3,5,6,7,8,3,4-heptamethoxyflavone, reference compound]", "[Ca^2+]i in MCF-7 cells", "µM", ">", 50),
]

====

Tested on: HT-29 cells
run description: Cell survival assay (antiproliferative IC50)
Type: cell-based, human
condition info: Homo sapiens

# compound, display unit, bound operator, IC50
rows = [
    ("COc1ccc(-c2cc(=O)c3c(O)c(OC)c(OC)c(OC)c3o2)cc1OC [J]", "µM", ">", 100),
    ("COc1cc(-c2cc(=O)c3c(OC)c(OC)c(OC)c(OC)c3o2)cc(OC)c1OC [F, 5,6,7,8,3′,4′,5′-heptamethoxyflavone, reference compound]", "µM", "=", 96.4),
    ("COc1ccc(-c2cc(=O)c3c(O)c(OC)c(OC)c(OC)c3o2)cc1O [Compound K]", "µM", "=", 40),
    ("COc1ccc(-c2cc(=O)c3c(OC)c(OC)c(OC)c(OC)c3o2)cc1OC [Compound A, 5,6,7,8,3′,4′-hexamethoxyflavone, reference compound]", "µM", ">", 100),
    ("COc1ccc(-c2cc(=O)c3c(OC)c(OC)c(OC)c(OC)c3o2)cc1O [I]", "µM", ">", 100),
    ("COc1cc(-c2cc(=O)c3c(O)c(OC)c(OC)c(OC)c3o2)cc(OC)c1OC [E]", "µM", ">", 100),
    ("COc1ccc(-c2oc3c(OC)c(OC)c(OC)c(O)c3c(=O)c2OC)cc1OC [Compound C]", "µM", "=", 77.4),
    ("COc1cc(-c2cc(=O)c3c(OC)c(OC)c(OC)c(OC)c3o2)ccc1O [Compound G]", "µM", "=", 45.8),
    ("COc1c(OC)c(OC)c2c(=O)cc(-c3ccc(O)c(O)c3)oc2c1OC [H]", "µM", "=", 74.7),
]

====

Tested on: COLO205 cells
run description: Cell cycle distribution by flow cytometry
Assay type: cell-based, human
condition info: COLO205 cells, 100 μM, 24 h, Table 12
recorded metric: Cell Cycle Distribution G0/G1

# compound, recorded metric, result
records = [
    ("COc1ccc(-c2oc3c(OC)c(OC)c(OC)c(OC)c3c(=O)c2O)cc1OC [B]", "Cell Cycle Distribution G0/G1", "78.51 ± 0.63"),
    ("COc1ccc(-c2cc(=O)c3c(O)c(OC)c(OC)c(OC)c3o2)cc1O [Compound K]", "Cell Cycle Distribution G0/G1", "43.58 ± 2.29"),
    ("COc1ccc(-c2cc(=O)c3c(OC)c(OC)c(OC)c(OC)c3o2)cc1OC [Compound A, 5,6,7,8,3′,4′-hexamethoxyflavone, reference compound]", "Cell Cycle Distribution G0/G1", "65.60 ± 0.65"),
]

====

System: HL-60 cells
run description: Cell cycle distribution by flow cytometry
Assay type: cell-based, human
condition info: 100 μM, 24 h, Table 10
Measured Cell Cycle Distribution S by item
recorded metric: Cell Cycle Distribution S

# compound, recorded metric, recorded number
rows = [
    ("COc1ccc(-c2oc3c(OC)c(OC)c(OC)c(OC)c3c(=O)c2O)cc1OC [B]", "Cell Cycle Distribution S", 43.86),
    ("COc1cc(-c2cc(=O)c3c(OC)c(OC)c(OC)c(OC)c3o2)ccc1O [Compound G]", "Cell Cycle Distribution S", 23.35),
    ("COc1ccc(-c2cc(=O)c3c(OC)c(OC)c(OC)c(OC)c3o2)cc1OC [Compound A, 5,6,7,8,3′,4′-hexamethoxyflavone, reference compound]", "Cell Cycle Distribution S", 30.60),
    ("COc1ccc(-c2oc3c(OC)c(OC)c(OC)c(O)c3c(=O)c2OC)cc1OC [Compound C]", "Cell Cycle Distribution S", 31.03),
    ("COc1c(OC)c(OC)c2c(=O)cc(-c3ccc(O)c(O)c3)oc2c1OC [H]", "Cell Cycle Distribution S", 12.91),
    ("COc1ccc(-c2cc(=O)c3c(OC)c(OC)c(OC)c(OC)c3o2)cc1O [I]", "Cell Cycle Distribution S", 21.31),
    ("COc1cc(-c2cc(=O)c3c(OC)c(OC)c(OC)c(OC)c3o2)cc(OC)c1OC [F, 5,6,7,8,3′,4′,5′-heptamethoxyflavone, reference compound]", "Cell Cycle Distribution S", 31.43),
    ("COc1ccc(-c2cc(=O)c3c(O)c(OC)c(OC)c(OC)c3o2)cc1OC [J]", "Cell Cycle Distribution S", 41.27),
    ("COc1cc(-c2cc(=O)c3c(O)c(OC)c(OC)c(OC)c3o2)cc(OC)c1OC [E]", "Cell Cycle Distribution S", 49.79),
    ("COc1ccc(-c2oc3c(OC)c(OC)c(OC)c(OC)c3c(=O)c2OC)cc1OC [D, 3,5,6,7,8,3,4-heptamethoxyflavone, reference compound]", "Cell Cycle Distribution S", 15.47),
    ("COc1ccc(-c2cc(=O)c3c(O)c(OC)c(OC)c(OC)c3o2)cc1O [Compound K]", "Cell Cycle Distribution S", 66.21),
]

====

Test system: HL-60 cells
run description: Cell cycle distribution by flow cytometry
Type: cell-based, human
condition info: 10 μM, 24 h, Table 10
recorded metric: Cell Cycle Distribution S

# compound, recorded metric, result
measured = [
    ("COc1ccc(-c2cc(=O)c3c(O)c(OC)c(OC)c(OC)c3o2)cc1OC [J]", "Cell Cycle Distribution S", "39.20 ± 2.10"),
    ("COc1cc(-c2cc(=O)c3c(OC)c(OC)c(OC)c(OC)c3o2)ccc1O [Compound G]", "Cell Cycle Distribution S", "44.15 ± 2.12"),
    ("COc1ccc(-c2cc(=O)c3c(O)c(OC)c(OC)c(OC)c3o2)cc1O [Compound K]", "Cell Cycle Distribution S", "45.22 ± 4.83"),
    ("COc1c(OC)c(OC)c2c(=O)cc(-c3ccc(O)c(O)c3)oc2c1OC [H]", "Cell Cycle Distribution S", "47.95 ± 5.43"),
    ("COc1ccc(-c2oc3c(OC)c(OC)c(OC)c(OC)c3c(=O)c2O)cc1OC [B]", "Cell Cycle Distribution S", "59.01 ± 0.78"),
    ("COc1ccc(-c2oc3c(OC)c(OC)c(OC)c(O)c3c(=O)c2OC)cc1OC [Compound C]", "Cell Cycle Distribution S", "1.64 ± 0.42"),
    ("COc1cc(-c2cc(=O)c3c(OC)c(OC)c(OC)c(OC)c3o2)cc(OC)c1OC [F, 5,6,7,8,3′,4′,5′-heptamethoxyflavone, reference compound]", "Cell Cycle Distribution S", "41.07 ± 0.37"),
    ("COc1ccc(-c2cc(=O)c3c(OC)c(OC)c(OC)c(OC)c3o2)cc1O [I]", "Cell Cycle Distribution S", "44.86 ± 2.49"),
]
